biological target: T1, recombinant Fc-tag-fused human Notch-1 extracellular domain (Homo sapiens, UniProt P46531); experiment: ELISA; multi-point Fab-ELISA: target immobilised at 5 ug/ml on MaxiSorp plates; purified Fab 0.01 nM-1 uM in PT for 30 min; detected with HRP-conjugated anti-HIS antibody; EC50 from a one-site specific-binding fit; settings: both partners purified
T1 construct: Notch-1, human, extracellular domain; No catalogue number and no residue limits are printed; also called N1; source: bought: R&D Systems
T1 sequence (P46531 19-1735): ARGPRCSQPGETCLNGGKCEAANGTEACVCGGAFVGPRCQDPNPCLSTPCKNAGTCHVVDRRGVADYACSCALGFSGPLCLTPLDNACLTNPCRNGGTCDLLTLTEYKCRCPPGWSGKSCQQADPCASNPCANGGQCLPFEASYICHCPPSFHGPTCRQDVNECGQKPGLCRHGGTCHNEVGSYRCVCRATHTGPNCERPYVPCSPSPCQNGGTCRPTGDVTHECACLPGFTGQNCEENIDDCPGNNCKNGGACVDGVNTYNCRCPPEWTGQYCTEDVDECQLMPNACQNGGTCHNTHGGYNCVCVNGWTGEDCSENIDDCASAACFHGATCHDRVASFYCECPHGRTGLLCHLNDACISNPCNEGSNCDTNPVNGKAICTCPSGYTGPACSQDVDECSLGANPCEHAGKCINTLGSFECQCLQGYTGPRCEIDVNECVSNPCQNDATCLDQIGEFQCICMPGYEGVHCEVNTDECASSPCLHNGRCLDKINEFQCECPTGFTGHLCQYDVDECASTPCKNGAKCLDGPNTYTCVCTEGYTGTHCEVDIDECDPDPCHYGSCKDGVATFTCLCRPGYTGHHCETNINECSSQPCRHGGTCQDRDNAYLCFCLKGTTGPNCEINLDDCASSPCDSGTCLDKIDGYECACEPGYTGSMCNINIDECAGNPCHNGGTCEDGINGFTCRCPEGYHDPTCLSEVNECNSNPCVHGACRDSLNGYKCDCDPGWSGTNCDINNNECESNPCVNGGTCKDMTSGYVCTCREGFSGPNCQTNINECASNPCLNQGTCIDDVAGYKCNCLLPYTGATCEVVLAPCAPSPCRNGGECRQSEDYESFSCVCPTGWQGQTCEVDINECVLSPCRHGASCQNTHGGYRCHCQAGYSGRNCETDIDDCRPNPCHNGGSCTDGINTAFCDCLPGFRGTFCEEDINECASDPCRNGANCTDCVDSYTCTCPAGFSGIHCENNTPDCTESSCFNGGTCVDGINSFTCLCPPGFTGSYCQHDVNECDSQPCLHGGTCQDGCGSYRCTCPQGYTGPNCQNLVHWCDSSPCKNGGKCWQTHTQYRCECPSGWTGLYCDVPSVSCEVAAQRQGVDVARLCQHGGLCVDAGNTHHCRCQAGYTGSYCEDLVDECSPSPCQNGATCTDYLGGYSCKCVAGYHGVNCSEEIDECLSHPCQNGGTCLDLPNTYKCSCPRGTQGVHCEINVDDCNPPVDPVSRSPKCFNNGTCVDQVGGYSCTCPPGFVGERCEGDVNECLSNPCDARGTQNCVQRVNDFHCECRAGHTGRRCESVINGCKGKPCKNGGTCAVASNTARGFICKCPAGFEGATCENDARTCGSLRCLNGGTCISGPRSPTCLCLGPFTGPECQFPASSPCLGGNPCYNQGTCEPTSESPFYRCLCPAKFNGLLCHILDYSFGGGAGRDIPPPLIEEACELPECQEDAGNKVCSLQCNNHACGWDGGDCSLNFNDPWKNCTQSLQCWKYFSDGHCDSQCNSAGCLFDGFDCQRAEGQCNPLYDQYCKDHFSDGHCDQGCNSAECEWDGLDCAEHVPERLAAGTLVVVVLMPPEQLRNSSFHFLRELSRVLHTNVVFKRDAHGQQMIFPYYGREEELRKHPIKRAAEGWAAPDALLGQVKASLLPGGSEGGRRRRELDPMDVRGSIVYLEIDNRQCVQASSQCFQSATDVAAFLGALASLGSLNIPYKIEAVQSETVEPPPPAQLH
pEC50: −log10 of the molar value.
quantity: pEC50

Consider the binder Fab N1/F/2 (purified soluble Fab) (Fab, V domains shown, light chain on the modified trastuzumab framework of Library-F (Persson et al., 2013); CDRs L1 and L2 fixed; Fab heavy chain on the modified trastuzumab framework of Library-F; short CDRH3; The Fab is detected by an anti-HIS antibody; source: E. coli BL21, purified (Protein-L resin)) VH: EVQLVESGGGLVQPGGSLRLSCAASGFNLSSYSIHWVRQAPGKGLEWVASISSSYGYTYYADSVKGRFTISADTSKNTAYLQMNSLRAEDTAVYYCARGYYAFDYWGQGTLVTVSS VL: DIQMTQSPSSLSASVGDRVTITCRASQSVSSAVAWYQQKPGKAPKLLIYSASSLYSGVPSRFSGSRSGTDFTLTISSLQPEDFATYYCQQWWSFPLITFGQGTKVEIK . State its measured pEC50.
~8.40

Consider the binder Fab N1/F/R3 (purified soluble Fab) (Fab, V domains shown, light chain on the modified trastuzumab framework of Library-F (Persson et al., 2013); CDRs L1 and L2 fixed; clone reconstructed from NGS information; Fab heavy chain on the modified trastuzumab framework of Library-F; medium CDRH3 length; The Fab is detected by an anti-HIS antibody; source: E. coli BL21, purified (Protein-L resin)) VH: EVQLVESGGGLVQPGGSLRLSCAASGFNIYSSYMHWVRQAPGKGLEWVASIYPYYGYTSYADSVKGRFTISADTSKNTAYLQMNSLRAEDTAVYYCARYFSYGPFYYGSGLDYWGQGTLVTVSS VL: DIQMTQSPSSLSASVGDRVTITCRASQSVSSAVAWYQQKPGKAPKLLIYSASSLYSGVPSRFSGSRSGTDFTLTISSLQPEDFATYYCQQGFSLITFGQGTKVEIK . State its measured pEC50.
7.43

Consider the binder Fab N1/F/R1 (purified soluble Fab) (Fab, V domains shown, light chain on the modified trastuzumab framework of Library-F (Persson et al., 2013); CDRs L1 and L2 fixed; clone reconstructed from NGS information; Fab heavy chain on the modified trastuzumab framework of Library-F; medium CDRH3 length; The Fab is detected by an anti-HIS antibody; source: E. coli BL21, purified (Protein-L resin)) VH: EVQLVESGGGLVQPGGSLRLSCAASGFNIYSSYIHWVRQAPGKGLEWVASIYPYYGSTYYADSVKGRFTISADTSKNTAYLQMNSLRAEDTAVYYCARYAHFSVYGAMDYWGQGTLVTVSS VL: DIQMTQSPSSLSASVGDRVTITCRASQSVSSAVAWYQQKPGKAPKLLIYSASSLYSGVPSRFSGSRSGTDFTLTISSLQPEDFATYYCQQWYGGYALFTFGQGTKVEIK . State its measured pEC50.
~8.40
